Origin of values: patent US20040121946A9

Each item that follows carries a reported DR5w11 binding data.
biological target: DRB1*1101 (DR5w11) (Homo sapiens, UniProt P01903+P01911, A100R/A169T/A87E/I96F/K41T/L162R/M171V/P40S/Q125H/Q178H/Q39Y/Q99D/R42S/S66Y/T262R/V115G/W38E); test: HLA class II peptide binding assay, purified HLA; details: Table XIX, DR supermotif peptides; unit not given
# output: bare number, no unit

| Compound Structure | DR5w11 binding data |
| --- | --- |
| CC(C)C[C@H](NC(=O)[C@H](CO)NC(=O)[C@H](C)NC(=O)[C@H](CC(N)=O)NC(=O)[C@@H](NC(=O)[C@@H]1CCCN1C(=O)[C@H](CC(C)C)NC(=O)[C@H](Cc1ccc(O)cc1)NC(=O)[C@@H](NC(=O)[C@H](CC(C)C)NC(=O)[C@H](CCC(=O)O)NC(=O)[C@H](CC(C)C)NC(=O)[C@@H](N)CC(N)=O)[C@@H](C)O)[C@@H](C)O)C(=O)N[C@@H](CO)C(=O)N[C@@H](Cc1ccccc1)C(=O)O | 0.0050 |
| CC[C@H](C)[C@H](NC(=O)CNC(=O)[C@H](CC(=O)O)NC(=O)[C@H](Cc1ccc(O)cc1)NC(=O)[C@@H]1CCCN1C(=O)[C@H](CCCCN)NC(=O)[C@H](C)NC(=O)CNC(=O)[C@H](Cc1ccccc1)NC(=O)[C@@H](NC(=O)[C@H](CCSC)NC(=O)[C@H](CC(C)C)NC(=O)[C@H](CCC(=O)O)NC(=O)[C@H](Cc1c[nH]c2ccccc12)NC(=O)[C@@H](N)C(C)C)[C@@H](C)O)C(=O)O | 0.0054 |
| CC[C@H](C)[C@H](NC(=O)[C@H](CCCCN)NC(=O)[C@H](CCCCN)NC(=O)[C@@H](N)CS)C(=O)N[C@@H](Cc1ccccc1)C(=O)NCC(=O)N[C@@H](CO)C(=O)N[C@@H](CC(C)C)C(=O)N[C@@H](C)C(=O)N[C@@H](Cc1ccccc1)C(=O)N[C@@H](CC(C)C)C(=O)N1CCC[C@H]1C(=O)N[C@@H](CCC(=O)O)C(=O)N[C@@H](CO)C(=O)N[C@@H](Cc1ccccc1)C(=O)O | −0.0005 |

Please examine the following record next.
Q. Fill in DR5w11 binding data for record `CC(C)C[C@H](NC(=O)[C@H](CC(=O)O)NC(=O)[C@H](CCCNC(=N)N)NC(=O)[C@H](Cc1c[nH]cn1)NC(=O)[C@@H](NC(=O)[C@H](CC(C)C)NC(=O)[C@H](CCCNC(=N)N)NC(=O)[C@@H](N)C(C)C)C(C)C)C(=O)N[C@@H](C)C(=O)N[C@@H](C)C(=O)N[C@@H](CCCNC(=N)N)C(=O)N[C@@H](CC(N)=O)C(=O)N[C@H](C(=O)N[C@@H](CC(C)C)C(=O)N[C@H](C(=O)O)C(C)C)C(C)C`
A. 0.2700

* * *

target: DRB1*1302 (DR6w19) (Homo sapiens, UniProt P01903+P01911, A100E/A169T/K41T/L162R/M171V/P40S/Q125H/Q178H/Q39Y/Q99D/R42S/S66N/T262R/V115G/W38E/Y61H); experiment: HLA class II peptide binding assay, purified HLA; conditions: Table XIX, DR supermotif peptides; unit not given
Sequence (P01903 26-254 limits assumed, other chains not shown): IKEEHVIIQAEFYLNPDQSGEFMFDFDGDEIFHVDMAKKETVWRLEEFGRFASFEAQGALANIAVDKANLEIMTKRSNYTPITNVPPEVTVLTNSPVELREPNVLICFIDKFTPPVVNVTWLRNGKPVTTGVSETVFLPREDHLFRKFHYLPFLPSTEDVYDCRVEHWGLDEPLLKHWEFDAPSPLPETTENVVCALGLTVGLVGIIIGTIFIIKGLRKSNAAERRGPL
Value Type: DR6w19 binding data

Q. Fill in DR6w19 binding data for record `CC[C@H](C)[C@H](NC(=O)[C@H](CO)NC(=O)[C@H](CCC(=O)O)NC(=O)[C@H](CC(C)C)NC(=O)[C@H](C)NC(=O)[C@H](CCSC)NC(=O)[C@H](Cc1c[nH]c2ccccc12)NC(=O)[C@H](CCCCN)NC(=O)[C@@H](NC(=O)[C@@H]1CCCN1C(=O)[C@@H](NC(=O)[C@@H](N)CCCCN)C(C)C)[C@@H](C)CC)C(=O)N[C@@H](CC(C)C)C(=O)N[C@@H](CCCNC(=N)N)C(=O)N[C@@H](CCCNC(=N)N)C(=O)O`
A. 0.0031

Q. Fill in DR6w19 binding data for record `CC[C@H](C)[C@H](NC(=O)CNC(=O)[C@H](CC(C)C)NC(=O)[C@H](CC(C)C)NC(=O)[C@H](CCCNC(=N)N)NC(=O)[C@@H](N)CO)C(=O)N[C@@H](CS)C(=O)N[C@@H](CC(C)C)C(=O)N[C@H](C(=O)N[C@@H](CO)C(=O)N[C@H](C(=O)N[C@H](C(=O)N[C@@H](CCC(N)=O)C(=O)N[C@@H](CC(C)C)C(=O)N[C@H](C(=O)O)C(C)C)C(C)C)[C@@H](C)O)[C@@H](C)O`
A. 0.3400

Q. Fill in DR6w19 binding data for record `CC[C@H](C)[C@H](NC(=O)CNC(=O)[C@H](CC(=O)O)NC(=O)[C@H](Cc1ccc(O)cc1)NC(=O)[C@@H]1CCCN1C(=O)[C@H](CCCCN)NC(=O)[C@H](C)NC(=O)CNC(=O)[C@H](Cc1ccccc1)NC(=O)[C@@H](NC(=O)[C@H](CCSC)NC(=O)[C@H](CC(C)C)NC(=O)[C@H](CCC(=O)O)NC(=O)[C@H](Cc1c[nH]c2ccccc12)NC(=O)[C@@H](N)C(C)C)[C@@H](C)O)C(=O)O`
A. 0.0004
